- Assay protocol: Bioavailability in NMRI female mouse at 30 mg/kg, po by HPLC analysis
- Format: ADME, organism-based
- Stated conditions: in vivo
Readout: bioavailability (%)
Quick note: give the figure in %, leave out the unit.

Prompt line: Read off the recorded bioavailability for C=C[C@]1(C)C[C@@H](OC(=O)Cn2cc(-c3ccc(Cn4cnc5c(N6CCNCC6)ncnc54)nc3)nn2)[C@]2(C)[C@H](C)CC[C@]3(CCC(=O)[C@H]32)[C@@H](C)[C@@H]1O
Response line: 0.3

###

- Test system: Staphylococcus aureus
- Assay protocol: Antibacterial activity against multi drug-resistant Staphylococcus aureus USA300 FPR3757 assessed as inhibition of visible growth incubated for 20 to 24 hrs by microbroth serial dilution assay
- Format: functional
- Stated conditions: time 20-24 hrs, read-out: MIC100
Readout: MIC
Remember to put the unit after the number in your answer.

Previously resolved entries follow.
>  <Compound>
C=C[C@]1(C)C[C@@H](OC(=O)Cn2cc(-c3ccc(Cn4cnc5c(N6CCNCC6)ncnc54)cc3)nn2)[C@]2(C)[C@H](C)CC[C@]3(CCC(=O)[C@H]32)[C@@H](C)[C@@H]1O

>  <MIC>
0.25 mg/L

$$$$
>  <Compound>
C=C[C@]1(C)C[C@@H](OC(=O)Cn2cc(-c3ccc(Cn4cnc5c(N6CCNCC6)ncnc54)nc3)nn2)[C@]2(C)[C@H](C)CC[C@]3(CCC(=O)[C@H]32)[C@@H](C)[C@@H]1O

>  <MIC>
0.12 mg/L

$$$$
>  <Compound>
C=C[C@]1(C)C[C@@H](OC(=O)Cn2cc(-c3ccc(Cn4cnc5c(N)ncnc54)cc3)nn2)[C@]2(C)[C@H](C)CC[C@]3(CCC(=O)[C@H]32)[C@@H](C)[C@@H]1O

>  <MIC>
0.03 mg/L

$$$$

Prompt line: // fetch MIC given entry C=C[C@]1(C)C[C@@H](OC(=O)CS[C@@H]2CC[C@@H](N)C[C@H]2O)[C@]2(C)[C@H](C)CC[C@]3(CCC(=O)[C@H]32)[C@@H](C)[C@@H]1O [LEFAMULIN]
Response line: 0.12 mg/L

Prompt line: Dear colleague, please send me the reported MIC for C=C[C@]1(C)C[C@@H](OC(=O)Cn2cc(-c3ccc([C@@H](C)n4cnc5c(N6CCNCC6)ncnc54)cc3)nn2)[C@]2(C)[C@H](C)CC[C@]3(CCC(=O)[C@H]32)[C@@H](C)[C@@H]1O when you can.
Response line: 0.25 mg/L

Prompt line: Output MIC of C=C[C@]1(C)C[C@@H](OC(=O)Cn2cc(-c3ccc(Cn4cnc5c(N)ncnc54)c(OC)c3)nn2)[C@]2(C)[C@H](C)CC[C@]3(CCC(=O)[C@H]32)[C@@H](C)[C@@H]1O
Response line: 0.06 mg/L
